# Assay remarks: qHTS Assay for NPC1 Promoter Activators; further: nearly all actives have a fitted effect of over 60% in size
# Measurement setup: Huh7 NPC1 promoter luciferase reporter, 24 h; series mostly up to 9.22 µM
About 7,600 (2.4%) of roughly 320,000 compounds were called active. Roughly 3% stayed inconclusive and do not appear here. The call rests on the fitted dose curve; in most records, active means well fitted activation curve with a large enough effect; inconclusive means small, poorly fitted or top-dose-only effect; inactive means no such curve, though single readings can be large or run the other way. For the sample, actives were picked, then their nearest neighbours and some compounds at random.
# output must be one of 1 (yes) = active, 0 (no) = inactive

                                   compound  discrete_label
0  CC(=O)Nc1cccc(C(=O)OCC(=O)c2ccc3c(c2)OCO3)c1         1 (yes)
1   CC(C)Cc1nnc(NC(=O)CCNC(=O)c2ccccc2Cl)s1          0 (no)
2  CC1CCCC(C)N1C(=O)COC(=O)COc1ccccc1C#N (centres undefined)          0 (no)

Q: Check the results log: what was the call for O=C(COC(=O)C1(c2ccc(F)cc2)CCCC1)N1CCNC1=O ?
Result: 0 (no)

Q: Check the results log: what was the call for Cc1ccc(OCCCC(=O)Nc2ccc3c(c2)OCCO3)cc1 ?
Result: 0 (no)

Q: Give the logged outcome of this assay for the following compound: Cn1c(=NC(=O)C2CC2)sc2cc(F)cc(F)c21
Result: 0 (no)

Q: Assay result, entry O=C(c1ccc(Cl)c(S(=O)(=O)N2CCCCCC2)c1)N1CCN(c2ccc(O)cc2)CC1 — outcome?
Result: 0 (no)

Q: Please let me know the test result on file for CC(C)(C)NC(=O)CSC(=Nc1ccccc1F)NC#N .
Result: 1 (yes)

###

# Assay remarks: qHTS Assay for NPC1 Promoter Activators; further: nearly all actives have a fitted effect of over 60% in size; further: potency means the concentration at half of the fitted maximal effect
# Measurement setup: Huh7 NPC1 promoter luciferase reporter, 24 h; series mostly up to 9.22 µM
Among all 320,000 compounds or so, about 7,600 (2.4%) were called active. Roughly 3% stayed inconclusive and do not appear here. Only a selection was taken, and actives are over-represented in it overall.
Measured endpoint: Potency

Known results for compounds:
>>> df
                            compound_string    value_observed
0       CC(=O)c1sc(NC(=O)CCCOc2ccccc2C)nc1C          inactive
1  COc1cc(/C=N/O)ccc1OCc1ccc([N+](=O)[O-])cc1  2510 nM (active)
2           COc1cc2ccccc2cc1C(=O)Nc1ccccc1C          inactive
3  Cc1ccc(S(=O)(=O)Nc2nc(C)cc(N/N=C/c3ccc(O)cc3)n2)cc1          inactive
4                         CC(=O)c1sc(N)nc1C          inactive

Now take the following compound into account.
Measured Potency, CC(=O)c1sc(NC(=O)C2=NN(c3ccccc3)C(=O)CC2)nc1C : inactive

###

# Assay remarks: qHTS Assay for NPC1 Promoter Activators; further: nearly all actives have a fitted effect of over 60% in size
# Measurement setup: Huh7 NPC1 promoter luciferase reporter, 24 h; series mostly up to 9.22 µM
In all, about 320,000 compounds went through this assay and about 7,600 (2.4%) were called active. Inconclusive results (about 3%) are left out. Calls come from the whole dose curve; as a rule, active = well fitted activation curve with a large enough effect; inconclusive = small, poorly fitted or top-dose-only effect; inactive = no such curve, though single readings can be large or run the other way. The list comes from a sample in which actives are over-represented; it also holds close analogues and randomly drawn compounds.
Give your call using only these classes: T for active, F for inactive

>>> print(df.to_string())
                            compound_string  discrete_label
0      COc1ccc(NC(=O)CS(=O)(=O)c2ccccc2)cc1               F
1                 Cc1ccnc(Nc2nc3ccccc3s2)n1               T
2                  Cc1ccnc(NC(=O)c2ccco2)n1               F
3  Cc1ccc(S(=O)(=O)N2CCCCC2)cc1NC(=O)c1cccnc1               F
4  CCCn1c(N)c(N(CCOC)C(=O)C2CCCC2)c(=O)[nH]c1=O               F

Now let's try a different one.
Q: What classification did N#CC(=C1SC=CS1)c1nc(-c2ccccc2)cs1 end up with in this test?
Result: F

###

# Assay remarks: qHTS Assay for NPC1 Promoter Activators; further: nearly all actives have a fitted effect of over 60% in size;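 on activation: reporter is driven by a mutant NPC1 promoter; % of control where 0% means no effect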
# Measurement setup: Huh7 NPC1 promoter luciferase reporter, 24 h; series mostly up to 9.22 µM
Out of some 320,000 compounds screened, about 7,600 (2.4%) were called active. Roughly 3% stayed inconclusive and do not appear here. Calls come from the whole dose curve; as a rule, active = well fitted activation curve with a large enough effect; inconclusive = small, poorly fitted or top-dose-only effect; inactive = no such curve, though single readings can be large or run the other way. This excerpt belongs to a sample that is enriched for actives.
Hello, when you answer, please use one of the following outcomes: label 1 = active, label 0 = inactive

Answered cases to consult:
>>> print(df.to_string())
                                   compound  discrete_label
0             CC(=O)c1ccc(N2Cc3ccccc3C2)cc1         label 1
1  O=C(Nc1ccc(C(F)(F)F)cc1)c1cccc(-n2cnnn2)c1         label 0

Q: GET /call?item= COc1ccc(-n2c(-c3ccc(OC)c(OC)c3)n[nH]c2=S)cc1 returns the recorded outcome of this test.
Result: label 0

###

# Assay remarks: qHTS Assay for NPC1 Promoter Activators; further: nearly all actives have a fitted effect of over 60% in size;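 on activation: reporter is driven by a mutant NPC1 promoter; % of control where 0% means no effect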
# Measurement setup: Huh7 NPC1 promoter luciferase reporter, 24 h; series mostly up to 9.22 µM
Hit rate of the full screen: of about 320,000 compounds, about 7,600 (2.4%) were called active. Inconclusive results (about 3%) are left out. Calls come from the whole dose curve; as a rule, active = well fitted activation curve with a large enough effect; inconclusive = small, poorly fitted or top-dose-only effect; inactive = no such curve, though single readings can be large or run the other way. The full list was thinned out, with actives kept by preference.
Reply using exactly one outcome from active, inactive

Solved cases (5 shown):
In [3]: df
Out[3]:
                                   molecule  discrete_label
0  Cc1ccc(S(=O)(=O)CCC(=O)OCC(=O)NCCc2ccc(S(N)(=O)=O)cc2)cc1        inactive
1      CN(C)c1ccnc2sc(C(=O)c3ccccc3)c(N)c12          active
2      Cc1c(C(=O)NNC(=O)c2ccncc2)oc2ccccc12        inactive
3  O=C(c1ccc2nc(N3CCOCC3)sc2c1)N1CCN(c2ccc(Cl)cc2)CC1        inactive
4  O=c1ccc(S(=O)(=O)N2CCCC2)cn1Cc1nc(-c2ccccc2)no1        inactive

Q: Assay outcome for COc1ccc(C2=NOC(COC(=O)c3ccc4ccccc4n3)C2)cc1 (stereo not drawn) : what was it?
Result: inactive

Q: Please let me know the test result on file for CC[C@H](C)C(=O)N[C@H]1CCCN1C(=O)/C=C/c1ccccc1 .
Result: inactive

Q: Hi, do you know how CC(C)(C)OC(=O)NCCCCCNC(=O)c1[nH]cnc1C(=O)Nc1nccs1 came out in this test?
Result: inactive

Q: Test call, this molecule: Brc1ccc2nc(N3CCCC3)sc2c1
Result: active

Q: Recorded test call requested for Fc1ccc2nc(N3CCCCC3)sc2c1
Result: active

Q: Hello, I am checking results. What call was entered for CC(C)(C)OC(=O)NCCCCCNC(=O)c1nc[nH]c1C(=O)NCc1ccccc1 ?
Result: inactive

Q: Hi team, can someone confirm the assay call for Cc1nc2sc(C(=O)c3ccccc3)c(N)c2c2c1CCCC2 ?
Result: inactive

Q: Any idea what this test logged for Cc1ccc(NC(=O)Cc2nc(COC(=O)C(C)NS(=O)(=O)c3ccc(C)cc3)cs2)cc1 (stereo not drawn) ?
Result: inactive

Q: Kindly provide the recorded test outcome for the following molecule: CC(Oc1ccc(Br)cc1)C(=O)NC1CCCCCC1 (stereo not drawn)
Result: inactive

###

# Assay remarks: qHTS Assay for NPC1 Promoter Activators; further: nearly all actives have a fitted effect of over 60% in size;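 on activation: reporter is driven by a mutant NPC1 promoter; % of control where 0% means no effect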
# Measurement setup: Huh7 NPC1 promoter luciferase reporter, 24 h; series mostly up to 9.22 µM
Screen size: about 320,000 compounds; about 7,600 (2.4%) were called active. About 3% were inconclusive and are not listed. Calls follow the shape of the dose curve; as a rule, active = well fitted activation curve with a large enough effect; inconclusive = small, poorly fitted or top-dose-only effect; inactive = no such curve, though single readings can be large or run the other way. For the sample, actives were picked, then their nearest neighbours and some compounds at random.
Output constraint: value belongs to active, inactive

Worked examples, 3 compounds total:
                                   compound  discrete_label
0  O=C(Nc1cccc(F)c1)NC1CCCc2ccccc21 (stereo unspecified)        inactive
1    COc1cccc(OCCOc2cccc(/C=N/n3cnnc3)c2)c1          active
2   CCCCCOC(=O)NCCOC(=O)Nc1ccc(C(=O)OCC)cc1        inactive

Q: Record request — test call for CCN1C(=O)C(=O)N(CC(=O)Nc2cc(C)ccc2C)C1=O
Result: inactive

###

# Assay remarks: qHTS Assay for NPC1 Promoter Activators; further: nearly all actives have a fitted effect of over 60% in size;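 on activation: reporter is driven by a mutant NPC1 promoter; % of control where 0% means no effect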
# Measurement setup: Huh7 NPC1 promoter luciferase reporter, 24 h; series mostly up to 9.22 µM
The campaign covered roughly 320,000 compounds. About 7,600 (2.4%) were called active. Roughly 3% stayed inconclusive and do not appear here. Calls come from the whole dose curve; as a rule, active = well fitted activation curve with a large enough effect; inconclusive = small, poorly fitted or top-dose-only effect; inactive = no such curve, though single readings can be large or run the other way. This is one part of a sample in which actives are shown more often than they occur.
Respond only with the outcome that fits, drawn from active, inactive

Solved cases below.
                                   compound  discrete_label
0  CCN(c1ccccc1)S(=O)(=O)c1cc(C(=O)NCc2ccccn2)ccc1C        inactive
1  CCN(CC)S(=O)(=O)c1cc(C(=O)Nc2ccccn2)ccc1C          active
2  C=CCN(CC=C)S(=O)(=O)c1ccc(C(=O)Nc2sc3c(c2C(N)=O)CCCCC3)cc1        inactive
3      O=S(=O)(NCCCN1CCOCC1)c1ccc(F)c(Cl)c1        inactive
4  O=C(Nc1nc2ccc([N+](=O)[O-])cc2s1)c1ccncc1          active
5       O=C(Nc1sc2c(c1C(=O)O)CCC2)c1ccccc1F        inactive

Q: Dear colleague, could you share the recorded outcome for COC(=O)c1ccc(NCC(=O)N2CCCCCC2)cc1 when you have a moment?
Result: inactive

Q: What classification did Cc1ccc(C(=O)Nc2nnc(-c3cccs3)s2)cc1C end up with in this test?
Result: active
